Reference for the values: PubChem BioAssay (NCI)

Test system: KM12 colon
Assay Method Text: NCI-60 one-dose screen, 48 h
Run Conditions: 10 µM unless noted
Compounds without any hit were thinned out: in the full panel of roughly 83,000, 20% have a hit. Calls of active or inactive are those of the source. Rule for the calls: active = growth percent below 10; inactive = the rest.
Outcomes: true (1) (active), false (0) (inactive)

[
  {
    "Compound": "O=C(Nc1ccc(N=Cc2ccccc2O)cc1)NC1C=c2ccccc2=CC1 (stereo not given)",
    "Label Class": "false (0)"
  },
  {
    "Compound": "COc1cc(/C=N/Nc2nc(-c3ccc(F)cc3)c(C#N)c(N3CCOCC3)n2)ccc1O",
    "Label Class": "false (0)"
  },
  {
    "Compound": "Cc1nnc(/N=C2\\NC(=O)/C(=C/c3ccsc3)S2)s1",
    "Label Class": "false (0)"
  },
  {
    "Compound": "CCCCN(CCCC)CC(CN(CC)CC)OC(=O)Nc1ccccc1 (stereo not given)",
    "Label Class": "false (0)"
  },
  {
    "Compound": "C#Cc1ccccc1NC(=O)c1sc2nc3c(cc2c1N)CCCCC3",
    "Label Class": "false (0)"
  },
  {
    "Compound": "O=C1CC(c2ccc(O)c(O)c2)Oc2cc(O)c([C@@H]3O[C@H](CO)[C@@H](O)[C@H](O)[C@H]3O)c(O)c21 (stereo not given in full)",
    "Label Class": "false (0)"
  },
  {
    "Compound": "CC1(C)[C@@H](O)CC[C@]2(C)[C@H]3CC[C@@H]4[C@H]5[C@H](c6cn(-c7ccccc7)nn6)CC[C@]5(CO)CC[C@@]4(C)[C@]3(C)CC[C@@H]12",
    "Label Class": "false (0)"
  },
  {
    "Compound": "COc1cc(NCC(=O)Nc2cc(Nc3ccc(C)cc3)ncn2)c(Cl)c(OC)c1Cl",
    "Label Class": "false (0)"
  },
  {
    "Compound": "COc1cc(C2=NN(C(C)=O)C(c3cccc(Nc4ccnc5cc(C(F)(F)F)ccc45)c3)C2)cc(OC)c1OC (stereo not given)",
    "Label Class": "false (0)"
  },
  {
    "Compound": "C#C[C@@]1(O)[C@@H](CO)O[C@@H](n2cc(I)c3c(N)ncnc32)[C@@H]1O",
    "Label Class": "true (1)"
  },
  {
    "Compound": "Cc1ccccc1NC(=O)c1sc2nc(C)c(C(C)O)cc2c1N (stereo not given)",
    "Label Class": "false (0)"
  },
  {
    "Compound": "COc1ccc(Cl)c([N+](=O)[O-])c1",
    "Label Class": "false (0)"
  },
  {
    "Compound": "[2H]c1cc2c(c([2H])c1F)/C(=C/c1[nH]c(C)c(C(=O)NCCN(CC)CC)c1C)C(=O)N2",
    "Label Class": "true (1)"
  },
  {
    "Compound": "Nc1c(C(=O)Nc2ccccn2)sc2nc3c(cc12)CCCC3",
    "Label Class": "false (0)"
  },
  {
    "Compound": "CN(C)C1=NCCN1",
    "Label Class": "false (0)"
  },
  {
    "Compound": "COc1ccc(-n2cc(COc3ccc4c5ccnc(C)c5n(CC(C)C)c4c3)nn2)cc1",
    "Label Class": "false (0)"
  },
  {
    "Compound": "Cc1cc(C)c2nc(Nc3nc(C)c(C)c(=O)[nH]3)nc(C)c2c1",
    "Label Class": "false (0)"
  },
  {
    "Compound": "COc1ccc(-c2cc(C(=O)N3N=C(c4ccc(N)cc4)CC3c3ccc(OC)cc3)c3cc(OC)ccc3n2)cc1 (stereo not given)",
    "Label Class": "false (0)"
  },
  {
    "Compound": "CCOC(=O)NCCc1nc2c([nH]1)c(=O)n(C)c(=O)n2C",
    "Label Class": "false (0)"
  },
  {
    "Compound": "Nc1ccccc1NC(=O)c1ccc(CSc2nc(N3CCOCC3)c3cccn3n2)cc1",
    "Label Class": "false (0)"
  }
]
